Molecular target: Sialidase (Clostridium perfringens, UniProt P10481)
Sequence (P10481 whole entry): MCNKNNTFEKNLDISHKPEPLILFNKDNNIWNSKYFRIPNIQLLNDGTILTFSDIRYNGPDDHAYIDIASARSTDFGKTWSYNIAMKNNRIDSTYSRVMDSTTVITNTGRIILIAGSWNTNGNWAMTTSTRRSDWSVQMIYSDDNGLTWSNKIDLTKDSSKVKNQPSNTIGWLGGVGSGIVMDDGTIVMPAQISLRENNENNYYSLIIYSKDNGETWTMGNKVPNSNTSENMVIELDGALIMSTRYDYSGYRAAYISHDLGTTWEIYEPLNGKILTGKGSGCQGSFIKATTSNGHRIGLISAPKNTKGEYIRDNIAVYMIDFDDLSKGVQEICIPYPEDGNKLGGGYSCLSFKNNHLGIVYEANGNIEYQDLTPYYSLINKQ
Assay: Inhibition of Clostridium perfringenes neuraminidase activity using 4-methylumbelliferyl-1-alpha-D-N-acetylneuramic acid sodium salt hydrate as substrate by fluorescence based assay
Conditions: read-out: pIC50 (converted)
A collection of compounds and their measured log10(IC50)
READOUT: log10(IC50) (log10 of the value in nM)

# STRUCTURE_SMILES, log10(IC50)
rows = [
    ("CCCCO[C@@H]1C=C(C(=O)O)C[C@H](N=C(N)N)[C@H]1NC(C)=O", 0.48),
    ("CC(=O)N[C@@H]1[C@@H](N)CC(C(=O)O)=C[C@H]1OCCCc1ccc(-c2ccccc2)cc1", 1.95),
    ("CC[C@@H](CC1CCCCC1)O[C@@H]1C=C(C(=O)O)C[C@H](N)[C@H]1NC(C)=O", 1.20),
    ("CC(=O)N[C@@H]1[C@@H](N)CC(C(=O)O)=C[C@H]1Oc1ccccc1", 2.72),
    ("CCC(CC)N(C)[C@@H]1C=C(C(=O)O)C[C@H](N)[C@H]1NC(C)=O", 0.78),
    ("CC[C@H](C)O[C@@H]1C=C(C(=O)O)C[C@H](NC(=N)N)[C@H]1NC(C)=O", -0.30),
    ("CCC(CC)C(=O)N[C@@H]1C=C(C(=O)O)C[C@H](N)[C@H]1NC(C)=O", 3.60),
    ("CC(=O)N[C@@H]1[C@@H](N)CC(C(=O)O)=C[C@H]1OCc1ccccc1", 2.79),
    ("CC[C@@H](CCC1CCCCC1)O[C@@H]1C=C(C(=O)O)C[C@H](N)[C@H]1NC(C)=O", 0.00),
]
